# Test system: A549: a human lung cancer cell line
# measurementNotes: MTT analytical method, A549 cells
# Assay type: cell-based
# conditionSet: 72 h
Response field label: string, one of class 1 (IC50 strictly below 8 µM) or class 0.

# compound, category
data = [
    ("CCCCCCCCCCCCOC(=O)c1ccc(C(=O)Nc2ccn([C@@H]3O[C@H](CO)[C@@H](O)C3(F)F)c(=O)n2)nc1", "class 1"),
    ("CCCCCCCCCCCCOC(=O)c1cccc(C(=O)Nc2ccn([C@@H]3O[C@H](CO)[C@@H](O)C3(F)F)c(=O)n2)n1", "class 0"),
    ("CCCCCCCCCCCOC(=O)c1cc(C(=O)Nc2ccn([C@@H]3O[C@H](CO)[C@@H](O)C3(F)F)c(=O)n2)ccn1", "class 1"),
    ("CCCCCCCCCCCCOC(=O)c1cc(C(=O)Nc2ccn([C@@H]3O[C@H](CO)[C@@H](O)C3(F)F)c(=O)n2)[nH]n1", "class 0"),
    ("CCCCCCCCCCCOC(=O)c1ccc(C(=O)Nc2ccn([C@@H]3O[C@H](CO)[C@@H](O)C3(F)F)c(=O)n2)cn1", "class 1"),
    ("CCCCCCCCCCCOC(=O)c1ccc(C(=O)Nc2ccn([C@@H]3O[C@H](CO)[C@@H](O)C3(F)F)c(=O)n2)nc1", "class 0"),
    ("CCCCCCCCCCCOC(=O)c1cccnc1C(=O)Nc1ccn([C@@H]2O[C@H](CO)[C@@H](O)C2(F)F)c(=O)n1", "class 0"),
    ("CCCCCCCCCCCCOC(=O)c1cc(C(=O)Nc2ccn([C@@H]3O[C@H](CO)[C@@H](O)C3(F)F)c(=O)n2)ccn1", "class 1"),
    ("CCCCCCCCCCCCOC(=O)c1ccc(C(=O)Nc2ccn([C@@H]3O[C@H](CO)[C@@H](O)C3(F)F)c(=O)n2)s1", "class 0"),
    ("CCCCCCCCCCCCOC(=O)c1ccc(C(=O)Nc2ccn([C@@H]3O[C@H](CO)[C@@H](O)C3(F)F)c(=O)n2)cn1", "class 1"),
    ("CCCCCCCCCCCCOC(=O)c1ccnc(C(=O)Nc2ccn([C@@H]3O[C@H](CO)[C@@H](O)C3(F)F)c(=O)n2)c1", "class 1"),
    ("CCCCCCCCCCCOC(=O)c1ncccc1C(=O)Nc1ccn([C@@H]2O[C@H](CO)[C@@H](O)C2(F)F)c(=O)n1", "class 1"),
    ("CCCCCCCCCCCCOC(=O)c1nccnc1C(=O)Nc1ccn([C@@H]2O[C@H](CO)[C@@H](O)C2(F)F)c(=O)n1", "class 1"),
    ("CCCCCCCCCCCOC(=O)c1cc(C(=O)Nc2ccn([C@@H]3O[C@H](CO)[C@@H](O)C3(F)F)c(=O)n2)[nH]n1", "class 0"),
    ("Nc1ccn([C@@H]2O[C@H](CO)[C@@H](O)C2(F)F)c(=O)n1 [Gemcitabine, gemcitabine, reference compound]", "class 1"),
    ("CCCCCCCCCCCCOC(=O)c1ccccc1C(=O)Nc1ccn([C@@H]2O[C@H](CO)[C@@H](O)C2(F)F)c(=O)n1", "class 0"),
]

---

# measurementNotes: Pharmacokinetics of gemcitabine in mice, intravenous and oral
# Type: in vivo
# conditionSet: both sexes, Kunming, mouse, plasma, po, 50 mg/kg; read-out: MRT0-t

# molecule, MRT last
data = [
    ("Nc1ccn([C@@H]2O[C@H](CO)[C@@H](O)C2(F)F)c(=O)n1 [Gemcitabine, gemcitabine, reference compound]", "1.28 h"),
]

The measured values listed here are drawn from patent US8653048B2.
